Tested System: recombinant human VDR (hVDR, vitamin D receptor) (Homo sapiens, UniProt P11473)
Sequence (P11473 whole entry): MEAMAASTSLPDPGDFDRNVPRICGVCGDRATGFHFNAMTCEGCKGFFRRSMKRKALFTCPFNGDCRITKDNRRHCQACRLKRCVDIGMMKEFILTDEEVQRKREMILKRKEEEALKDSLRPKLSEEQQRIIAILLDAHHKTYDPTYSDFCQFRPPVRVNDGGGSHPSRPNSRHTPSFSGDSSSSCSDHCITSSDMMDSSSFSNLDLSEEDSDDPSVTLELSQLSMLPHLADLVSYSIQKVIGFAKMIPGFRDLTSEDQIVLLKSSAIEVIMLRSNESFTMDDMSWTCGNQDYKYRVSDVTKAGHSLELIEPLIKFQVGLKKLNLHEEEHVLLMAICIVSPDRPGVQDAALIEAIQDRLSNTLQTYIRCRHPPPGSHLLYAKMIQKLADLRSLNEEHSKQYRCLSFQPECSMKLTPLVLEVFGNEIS
Experiment Notes: fluorescence polarization competition assay (PolarScreen)
Protocol Conditions: read-out: 6
Excerpt: fluorescence polarization competition assay (PolarScreen) on recombinant human VDR (hVDR, vitamin D receptor)
Recorded Endpoint: IC50 (nM)
# output: bare number, implied unit nM

Exercise: Give the reported value of IC50 for this record: C=C1[C@H](O)C(C)=C(C#CC2=CCCc3c2cccc3[C@H](C)CCCC(C)(C)O)C[C@H]1O
Solution: 28
